Each entry below carries its reported ka.
system: Macaca fascicularis PRLR (mfPRLR.mmh; SEQ ID NO:403); experiment: Surface plasmon resonance (Biacore T200), antibody-capture format; assay type: binding; conditions: 37° C., analyte mfPRLR.mmh
Sequence (as listed by the source): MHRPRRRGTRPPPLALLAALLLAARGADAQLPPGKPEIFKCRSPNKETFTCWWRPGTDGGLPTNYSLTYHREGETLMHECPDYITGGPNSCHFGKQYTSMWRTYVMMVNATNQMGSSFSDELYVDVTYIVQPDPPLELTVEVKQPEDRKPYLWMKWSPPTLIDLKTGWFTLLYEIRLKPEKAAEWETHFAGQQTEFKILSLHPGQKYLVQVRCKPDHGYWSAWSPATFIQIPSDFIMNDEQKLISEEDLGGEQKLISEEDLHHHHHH
recorded.metric: ka (M/s)

{"molecule": "H1H6804P: fully human anti-PRLR antibody, human IgG1 Fc; HCVR/LCVR SEQ ID NOs 242/250 (antibody, V domains shown) VH: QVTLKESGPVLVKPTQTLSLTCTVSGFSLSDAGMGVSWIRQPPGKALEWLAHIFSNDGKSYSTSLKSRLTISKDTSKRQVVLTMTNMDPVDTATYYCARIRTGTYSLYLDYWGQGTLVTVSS VL: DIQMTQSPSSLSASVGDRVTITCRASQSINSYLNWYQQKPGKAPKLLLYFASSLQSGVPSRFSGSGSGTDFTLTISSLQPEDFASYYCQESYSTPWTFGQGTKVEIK", "recorded.metric": "ka", "unit.abbrev": "M/s", "quantitative.readout": 455000}
{"molecule": "H1H6800P: fully human anti-PRLR antibody, human IgG1 Fc; HCVR/LCVR SEQ ID NOs 194/202 (antibody, V domains shown) VH: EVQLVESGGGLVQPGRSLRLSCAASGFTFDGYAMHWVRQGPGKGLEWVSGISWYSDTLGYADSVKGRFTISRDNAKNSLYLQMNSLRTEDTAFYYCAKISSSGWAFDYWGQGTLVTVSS VL: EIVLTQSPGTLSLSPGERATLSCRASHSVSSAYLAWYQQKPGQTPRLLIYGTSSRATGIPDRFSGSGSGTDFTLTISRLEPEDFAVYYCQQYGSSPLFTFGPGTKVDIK", "recorded.metric": "ka", "unit.abbrev": "M/s", "quantitative.readout": 439000}
